- PROTOCOL DETAILS: growth suppression of PTEN-deleted HCT116, pilot screen, cell-based, HCT116 clonal line, CellTiter-Glo (AID 824);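 also: 0% = 20 µM Hyamine control and 100% = vehicle cell control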
- MEASUREMENT CONDITIONS: 60 h, at 10 µM
Records with an inconclusive call do not appear. The source made the active and inactive calls.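 The calls were made as follows: active = viability at or below 27.92% in each of two runs, the all-compound median minus 4 SD; inconclusive = no clear call, values can overlap the other calls; inactive = the rest.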
Select the correct class. Options are active, inactive and nothing else.

Answered examples (4):
COc1ccc(CNc2oc(C)nc2C#N)cc1: inactive
O=C(Cn1c(=O)sc2ccccc21)Nc1ccccc1C(=O)O: inactive
CCC(=O)Nc1cccc(NC(=O)c2cc3ccccc3o2)c1: inactive
CCOc1cccc(C(=O)Nc2cc(-c3nn4c(C)nnc4s3)ccc2C)c1: inactive

In this assay, the call recorded for "Cc1ccc(O)c(C(=O)CC(=O)c2cccc(F)c2)c1" was what?
inactive

In this assay, the call recorded for "Cc1ccc(Cc2c(C)nc3nc(SCC(=O)NCc4ccco4)nn3c2C)cc1" was what?
active

In this assay, the call recorded for CC1(C)CC(=O)N(c2ccccc2)C1(C)O (stereo not given) was what?
inactive

In this assay, the call recorded for CC1=C(C(=O)OC2CCCCCCC2)C(c2ccc(O)cc2)NC(=O)N1 (stereo not given) was what?
inactive

In this assay, the call recorded for "O=C(Cn1cnc2c(nnn2-c2ccccc2)c1=O)N1CCCc2ccccc21" was what?
inactive

In this assay, the call recorded for CC1Cc2ccccc2N1Cc1nc2scc(-c3cccs3)c2c(=O)[nH]1 (stereo not given) was what?
inactive

In this assay, the call recorded for CC(CCc1ccccc1)NC(=O)CSc1nnnn1C (stereo not given) was what?
inactive

In this assay, the call recorded for "Cn1c2c(c(=O)n(C)c1=O)CN(Cc1ccco1)CN2" was what?
inactive

In this assay, the call recorded for "N=c1c2c(n(Cc3ccc(F)cc3)c3c1CCC3)CCC2" was what?
inactive

###

- PROTOCOL DETAILS: reducers of endogenous Her2 protein level, primary screen, SKBR3 breast tumor cells, AlphaScreen, ATP viability (AID 461);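 also: percent of carrier control wells set as 100% viability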
- MEASUREMENT CONDITIONS: 18-24 h, measured here: SKBR3 viability, ATP luminescence, at 10 µM
MEASURED PROPERTY: viability

Example results:
COc1ccc(Br)cc1C(=O)Nc1nnn(C)n1: 81.5%
Cc1ccc(-c2nc(=S)c3c(n2Cc2ccco2)CCCC3)cc1: 79%
CC1(C)OC(=O)C(=CNc2ccccc2)C(=O)O1: 98%
Cc1cc(N2C(=O)C3C4C=CC(C4)C3C2=O)ccc1Br (stereo not given): 107%
O=C(CCOc1ccccc1)NCc1ccccc1: 122%

Please give the measured viability for this molecule: CC(NC(=O)COc1ccc(Br)cc1)C(=O)O (stereo not given)
108%

Please give the measured viability for this molecule: "COc1ccc(-c2nnc(SCC(=O)Nc3ccc(Cl)cc3)n2C)cc1"
82.5%

Please give the measured viability for this molecule: "COc1cccc(OC)c1C(=O)Nc1ccc(CN2CCCCC2)cc1"
98.5%

###

- PROTOCOL DETAILS: RAM signaling pathway blockade in yeast – S. cerevisiae, Pdr1DBD-CYC8 efflux-inhibited sensitized strain, primary screen (AID 1298);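 also: 0% = DMSO untreated cells without growth and 100% = 10 µM 1-NA-PP1 full growth; higher means more yeast growth rescued from 5-FOA killing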
- MEASUREMENT CONDITIONS: S. cerevisiae cbk1-as DSE1-URA3 strain, 5-FOA growth OD615, 2 d; at 50 µM; stronger effect = higher value
# RAM network inhibition values compiled below
Only the number, expressed in %, is required.

Example results:
COCCOC(=O)C1=C(C)NC2=C(C(=O)CC(C)(C)C2)C1c1ccc(N(C)C)cc1 (stereo not given): 3.6
CCCNC(=O)c1noc2c1CCc1ccccc1-2: -1.13
COc1ccc(OC)c(N(CC(=O)Nc2ccc3c(c2)OCO3)S(=O)(=O)c2ccccc2)c1: 9.99
O=C(Cn1ncc2c(=O)oc3ccccc3c21)N1CCC(N2CCCCC2)CC1: 4.58
CCc1c(C)nc(SCC(=O)Nc2ccc(Br)cc2)[nH]c1=O: 3.9

Please give the measured RAM network inhibition for this molecule: "OCCNc1nc(Nc2ccccc2)nc(Nc2ccccc2)n1"
-1.3

Please give the measured RAM network inhibition for this molecule: "CCn1cc(C(=O)NCCCOC)c2cc(OC)c(OC)cc2c1=O"
3.59

Please give the measured RAM network inhibition for this molecule: CC1CCCN(c2nc3c(c(=O)n(C)c(=O)n3C)n2Cc2ccccc2)C1 (stereo not given)
1.56

Please give the measured RAM network inhibition for this molecule: "CCN1CCN(c2nc(SC)nc3sc4c(c23)CC(C)(C)OC4)CC1"
2.09

Please give the measured RAM network inhibition for this molecule: "O=C(NCc1ccccc1)c1cc(S(=O)(=O)N2CCOCC2)ccc1F"
3.42

Please give the measured RAM network inhibition for this molecule: COc1ccc(C2N(c3ccc(Cl)cc3)C(=O)C3CCCN32)cc1 (stereo not given)
0.88

Please give the measured RAM network inhibition for this molecule: "Cc1cc(NC(=O)Cn2c(=O)n(Cc3ccccc3)c(=O)c3ccccc32)no1"
6.47

Please give the measured RAM network inhibition for this molecule: O=C1c2ccccc2N2C(=O)c3ccccc3C2N1Cc1ccco1 (stereo not given)
3.03

Please give the measured RAM network inhibition for this molecule: "CCOc1ccc(NC(=O)CSc2nnc(Cn3c(=O)sc4ccccc43)n2C)cc1"
7.78

Please give the measured RAM network inhibition for this molecule: "COC(=O)c1ccc2[nH]c(C)c(CN3CCCC3)c(=O)c2c1"
1.59

Please give the measured RAM network inhibition for this molecule: "O=S(=O)(NCCOCCNS(=O)(=O)c1ccccc1)c1ccccc1"
1.94

###

- PROTOCOL DETAILS: growth suppression of PTEN-deleted HCT116, pilot screen, cell-based, HCT116 clonal line, CellTiter-Glo (AID 824);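 also: 0% = 20 µM Hyamine control and 100% = vehicle cell control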
- MEASUREMENT CONDITIONS: 60 h, at 10 µM, stronger effect = lower value
Inconclusive results are not listed. Calls of active or inactive are those of the source.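 Rule for the calls: active = viability at or below 27.92% in each of two runs, the all-compound median minus 4 SD; inconclusive = no clear call, values can overlap the other calls; inactive = the rest.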
MEASURED PROPERTY: viability

CC(C)N1C(=O)CCC1C(=O)N1CCC(Cc2ccccc2)CC1 (stereo unspecified): 95.3% (inactive)
CCNc1nc(NCC)nc(OCCNS(=O)(=O)c2cc(C)ccc2C)n1: 95.3% (inactive)
O=C(NCc1cccc(F)c1)c1noc2c1CCCC2: 32.7% (inactive)
COC(=O)NCC(c1cccnc1)N1CCN(c2ccccc2)CC1 (stereo unspecified): 96.8% (inactive)
CCCCNc1cc(=O)n(C)c(=O)[nH]1: 96.5% (inactive)
O=S(=O)(Nc1nnc(-c2ccccc2)s1)c1ccc(Cl)cc1: 105% (inactive)
CCN(CC)CCOc1ccc(Br)cc1: 103% (inactive)
O/N=C1\CCCc2oc3c(c21)CCCC3: 97.5% (inactive)
CC(=O)c1ccc(OCC(O)CN2CCC(C)CC2)cc1 (stereo unspecified): 101% (inactive)
CCCCOC(=O)Nc1ccc(N2CCOCC2)cc1: 102% (inactive)

Please give the measured viability for this molecule: "Cn1c(=O)oc2cc(S(=O)(=O)Nc3cccc(F)c3)ccc21"
89.5% (inactive)

Please give the measured viability for this molecule: COc1ccccc1N1CCN(C(CNC(=O)c2ccco2)c2cccnc2)CC1 (stereo unspecified)
77% (inactive)

###

- PROTOCOL DETAILS: inhibitors of the yeast RAM network, pilot screen, dse1pr::URA3 reporter, 5-FOA selection (AID 869);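 also: 0% = DMSO wells with no growth and 100% = 10 µM 1-NA-PP1 with full growth; RAM network block rescues cells from 5-FOA so hits raise OD615 growth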
- MEASUREMENT CONDITIONS: S. cerevisiae dse1pr::URA3 5-FOA growth, OD615, 2 d; at 10 µM; stronger effect = higher value; strain carries analog-sensitive mutant Cbk1 kinase
MEASURED PROPERTY: inhibition (%)
Only the number, expressed in %, is required.

Example results:
COc1ccc(C(=O)c2cnc(C(C)C)n2C)cc1: 1.88
CN(C)C(=O)c1nnc(Cc2ccc(Cl)cc2)o1: 0.31
CCSc1nnc(NC(=O)C2CC=CCC2C(=O)O)s1 (centres undefined): 0.665
Cc1ccc(C(=O)NCc2ccco2)cc1S(=O)(=O)N1CCCCC1: 3
O=C(CN1C(=O)c2cccc3cccc1c23)N1CCN(c2ccc(F)cc2)CC1: 2.49

Please give the measured inhibition for this molecule: "CCOC(=O)/C=C1\SCC(=O)N1CCOc1cccc(Br)c1"
2.75

Please give the measured inhibition for this molecule: "CCOC(=O)Cc1csc(NC(NC(=O)CC)(C(F)(F)F)C(F)(F)F)n1"
3.13

Please give the measured inhibition for this molecule: Cc1cccc(N2CCN(C(=O)c3ccc(NC(=O)C4CCCO4)cc3)CC2C)c1 (centres undefined)
1.11

###

# viability values compiled below
- PROTOCOL DETAILS: growth suppression of beta-catenin knockout HCT116, pilot screen, human colon tumor cells (AID 823);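 also: 0% = wells killed by 20 µM Hyamine and 100% = untreated DMSO cell wells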
- MEASUREMENT CONDITIONS: CellTiter-Glo, 60 h, at 10 µM, stronger effect = lower value
Records with an inconclusive call do not appear.
Only the number, expressed in %, is required.

Example results:
O=C(O)c1cccc(NS(=O)(=O)c2cccc3cccnc23)c1: 103
CCN(CC)CCNC(=O)Cn1nc(Cc2cccnc2)c2ccccc2c1=O: 95.7
O=C(NCCCN1CCN(c2ccccc2F)CC1)C1CCCN(S(=O)(=O)c2cnc[nH]2)C1 (centres undefined): 95.1
O=C(Nc1ccc(F)cc1F)N1CCN(c2ncccn2)CC1: 106
CCOC(=O)N1CCN(c2nc(SC)nc3sc4c(c23)CC(C)(C)OC4)CC1: 87.5
O=C1CCc2cc(S(=O)(=O)N3CCCC3C(=O)N3CCN(c4ccccc4)CC3)ccc2N1 (centres undefined): 105

Please give the measured viability for this compound: Cc1ccc2c(c1)c1c(n2CC(O)Cn2c(C)nc3ccccc32)C(=O)CCC1 (centres undefined)
59.2

Please give the measured viability for this compound: "O=c1c2c3c(sc2nc2n1CCCCC2)CCCC3"
90.4

Please give the measured viability for this compound: "CC(C)c1ccc(-c2nc(N3CCCC3)nc3n[nH]c(N)c23)cc1"
69.8
